Test system: PDL Fibroblasts
assay.procedure: SRB cytotoxicity on normal periodontal ligament fibroblasts, selective cytotoxicity
Format: cell-based, Human
run.conditions: Homo sapiens, Fibroblast; normal fibroblasts, SRB, 72 h, mean ± SD, value in brackets
Binarize IC50 at 100 µg/mL; below is True, at or above is False.

QUERY: Bench note: check whether COc1ccccc1Nc1c(F)cc2c(=O)c(C(=O)O)cn(C3CC3)c2c1[N+](=O)[O-] shows IC50 below 100 µg/mL
RESULT: True

QUERY: Bench note: check whether CCCCCCc1ccc(Nc2c(F)cc3c(=O)c(C(=O)O)cn(C4CC4)c3c2N)cc1 shows IC50 below 100 µg/mL
RESULT: False

QUERY: Bench note: check whether CCCCCCc1ccc(Nc2c(F)cc3c(=O)c(C(=O)O)cn(C4CC4)c3c2[N+](=O)[O-])cc1 shows IC50 below 100 µg/mL
RESULT: True

QUERY: Bench note: check whether CCc1ccc(Nc2c(F)cc3c(=O)c(C(=O)O)cn(C4CC4)c3c2N)cc1 shows IC50 below 100 µg/mL
RESULT: True

QUERY: Bench note: check whether CCn1cc(C(=O)O)c(=O)c2cc(F)c(Nc3ccc(OC)cc3OC)c([N+](=O)[O-])c21 [11c] shows IC50 below 100 µg/mL
RESULT: False

QUERY: Bench note: check whether CCCCc1ccc(Nc2c(F)cc3c(=O)c(C(=O)O)cn(C4CC4)c3c2[N+](=O)[O-])cc1 shows IC50 below 100 µg/mL
RESULT: False

QUERY: Bench note: check whether CCn1cc(C(=O)O)c(=O)c2cc(F)c(Nc3ccccc3OC)c(N)c21 [12a] shows IC50 below 100 µg/mL
RESULT: True
